This collection of values is drawn from patent US20060084135A1.

Field: Ratio to Control Rate Mean ± SE. Provide a value for each of the molecules that follow.
# TARGET SYSTEM: recombinant human SIRT1 (Homo sapiens)
# TEST DESCRIPTION: SIRT1 fluorescent deacetylation assay (p53-382 acetylated peptide substrate)
# Assay type: biochemical
# CONDITION SET: Table 11, resveratrol analogs; 100 μM, 25 μM NAD+, 25 μM p53-382 acetylated peptide

// returns reported Ratio to Control Rate Mean ± SE for input CC(=O)Oc1ccc(/C=C/c2cc(O)cc(O)c2)cc1 [BML-221, 3,5-Dihydroxy-4′-acetoxy-trans-stilbene]
3.05 ± 0.54

// returns reported Ratio to Control Rate Mean ± SE for input Oc1cccc(/C=C/c2ccccc2)c1 [3-Hydroxystilbene]
2.357 ± 0.074

// returns reported Ratio to Control Rate Mean ± SE for input Oc1cc(O)cc(/C=C/c2ccc3ccccc3c2)c1 [BML-218]
3.05 ± 0.37

// returns reported Ratio to Control Rate Mean ± SE for input CC(=O)Oc1cc(O)cc(/C=C/c2ccc(O)cc2)c1 [BML-227, 3,4′-Dihydroxy-5-acetoxy-trans-stilbene]
3.340 ± 0.093

// returns reported Ratio to Control Rate Mean ± SE for input COc1ccc(/C=C/c2cc(O)cc(O)c2)cc1O [Rhapontin aglycone]
4.060 ± 0.069

* * *

# TEST DESCRIPTION: Stability in solution (decay of SIRT1 fold-stimulation of aged stock)
# Type: physicochemical
# CONDITION SET: ethanol stock solution; ethanol stock 2.5 mM, room temperature, glass vials, nitrogen; assayed at 50 μM; read-out: Stability in Solution t1/2 (converted)
# Source text: The fold-stimulation (ratio to control) obtained with a compound diluted from an aged stock solution was compared to an identical dilution from a stock solution freshly prepared from the solid compound. “t1/2” is defined as the time required for the SIRT1 fold-stimulation of the compound from the aged solution to decay to one-half of that obtained from a freshly prepared solution. […] Stocks were aged by storage at room […] temperature, in glass vials, under a nitrogen atmosphere.
REPORTED METRIC: half-life at 50 µM (h)
Return type: number; implicit unit h.

// returns reported half-life at 50 µM for input Oc1ccc(/C=C/c2cc(O)cc(O)c2)cc1 [Resveratrol, 3,5,4′-Trihydroxy-trans-stilbene]
59

// returns reported half-life at 50 µM for input Oc1cc(O)cc(/C=C/c2ccc(F)cc2)c1 [BML-212, 3,5-Dihydroxy-4′-fluoro-trans-stilbene]
66

* * *

Field: % change in yeast replicative lifespan relative to untreated organisms. Provide a value for each of the compounds that follow.
# System: S. cerevisiae
# TEST DESCRIPTION: Yeast replicative lifespan
# Format: cell-based
# CONDITION SET: 10 μM; 2% glucose YPD; untreated = 100%

// returns reported % change in yeast replicative lifespan relative to untreated organisms for input Oc1cc(O)cc(/C=C/c2ccccc2)c1 [Pinosylvin, 3,5-Dihydroxy-trans-stilbene]
114%

// returns reported % change in yeast replicative lifespan relative to untreated organisms for input Oc1cc(O)cc(/C=C/c2ccc(Cl)cc2)c1 [BML-217, 3,5-Dihydroxy-4′-chloro-trans-stilbene]
90%

// returns reported % change in yeast replicative lifespan relative to untreated organisms for input Oc1cc(O)cc(/C=C/c2ccc(F)cc2)c1 [BML-212, 3,5-Dihydroxy-4′-fluoro-trans-stilbene]
98%

// returns reported % change in yeast replicative lifespan relative to untreated organisms for input CC(=O)Oc1ccc(/C=C/c2cc(O)cc(O)c2)cc1 [BML-221, 3,5-Dihydroxy-4′-acetoxy-trans-stilbene]
165%

* * *

# TARGET SYSTEM: recombinant human SIRT1 (Homo sapiens)
# TEST DESCRIPTION: SIRT1 fluorescent deacetylation assay (p53-382 acetylated peptide substrate)
# Assay type: biochemical
# CONDITION SET: Table 13, resveratrol analogs; 100 μM, 25 μM NAD+, 25 μM p53-382 acetylated peptide
REPORTED METRIC: Ratio to Control Rate Mean ± SE
The answer should be a number; do not append a unit.

// returns reported Ratio to Control Rate Mean ± SE for input Oc1ccc(CCc2cc(O)cc(O)c2)cc1 [Dihydroresveratrol]
1.08

// returns reported Ratio to Control Rate Mean ± SE for input Oc1ccc(/C=C/c2ccccc2)cc1 [4-Hydroxy-trans-stilbene]
0.943

// returns reported Ratio to Control Rate Mean ± SE for input COc1ccc(/C=C/c2ccccc2)cc1 [4-Methoxy-trans-stilbene]
0.840

// returns reported Ratio to Control Rate Mean ± SE for input O=C(Nc1ccccc1)c1cc(O)cc(O)c1 [BML-219, N-phenyl-(3,5-dihydroxy)benzamide]
0.902

* * *

# TARGET SYSTEM: recombinant human SIRT1 (Homo sapiens)
# Sequence (Q96EB6 1-747): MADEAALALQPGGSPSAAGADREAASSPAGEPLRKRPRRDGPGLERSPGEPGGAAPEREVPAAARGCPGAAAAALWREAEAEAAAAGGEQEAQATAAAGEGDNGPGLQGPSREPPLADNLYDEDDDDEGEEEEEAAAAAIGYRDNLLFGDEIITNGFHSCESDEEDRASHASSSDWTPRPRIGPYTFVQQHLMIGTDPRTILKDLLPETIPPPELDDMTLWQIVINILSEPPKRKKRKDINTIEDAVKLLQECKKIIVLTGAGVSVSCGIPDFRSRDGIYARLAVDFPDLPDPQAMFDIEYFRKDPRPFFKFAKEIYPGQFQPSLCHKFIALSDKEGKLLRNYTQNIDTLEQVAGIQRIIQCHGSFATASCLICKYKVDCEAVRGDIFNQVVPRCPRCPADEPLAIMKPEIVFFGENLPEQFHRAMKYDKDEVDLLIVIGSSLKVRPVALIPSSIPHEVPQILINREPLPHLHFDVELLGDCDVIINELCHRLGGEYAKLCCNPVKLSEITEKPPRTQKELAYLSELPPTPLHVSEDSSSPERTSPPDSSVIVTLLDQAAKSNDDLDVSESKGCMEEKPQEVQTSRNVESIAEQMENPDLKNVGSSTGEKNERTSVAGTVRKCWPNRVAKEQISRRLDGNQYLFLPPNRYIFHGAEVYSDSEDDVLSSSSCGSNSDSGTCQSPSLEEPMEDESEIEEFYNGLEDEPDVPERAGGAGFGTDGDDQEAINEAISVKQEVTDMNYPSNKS
# TEST DESCRIPTION: SIRT1 fluorescent deacetylation assay (p53-382 acetylated peptide substrate)
# Format: biochemical
# CONDITION SET: Table 12, resveratrol analogs; 100 μM, 25 μM NAD+, 25 μM p53-382 acetylated peptide
Field: Ratio to Control Rate Mean ± SE. Provide a value for each of the molecules that follow.
The answer should be a number; do not append a unit.

// returns reported Ratio to Control Rate Mean ± SE for input CC(=O)Nc1ccc(/C=C/c2cc(O)cc(O)c2)cc1 [BML-222]
1.88

// returns reported Ratio to Control Rate Mean ± SE for input COc1ccc(/C=C/c2ccccc2)cc1OC [3,4-Dimethoxy-trans-stilbene]
1.127

// returns reported Ratio to Control Rate Mean ± SE for input Oc1ccc(/C=C/c2ccccc2)cc1O [3,4-Dihydroxy-trans-stilbene]
1.64

// returns reported Ratio to Control Rate Mean ± SE for input Oc1cc(O)cc(/C=C/C2CCCCC2)c1 [BML-224]
1.297

// returns reported Ratio to Control Rate Mean ± SE for input COCOc1cc(/C=C/c2ccc(SC)cc2)cc(OCOC)c1 [BML-226]
2.316

* * *

# TARGET SYSTEM: recombinant human SIRT1 (Homo sapiens)
# Sequence (Q96EB6 1-747): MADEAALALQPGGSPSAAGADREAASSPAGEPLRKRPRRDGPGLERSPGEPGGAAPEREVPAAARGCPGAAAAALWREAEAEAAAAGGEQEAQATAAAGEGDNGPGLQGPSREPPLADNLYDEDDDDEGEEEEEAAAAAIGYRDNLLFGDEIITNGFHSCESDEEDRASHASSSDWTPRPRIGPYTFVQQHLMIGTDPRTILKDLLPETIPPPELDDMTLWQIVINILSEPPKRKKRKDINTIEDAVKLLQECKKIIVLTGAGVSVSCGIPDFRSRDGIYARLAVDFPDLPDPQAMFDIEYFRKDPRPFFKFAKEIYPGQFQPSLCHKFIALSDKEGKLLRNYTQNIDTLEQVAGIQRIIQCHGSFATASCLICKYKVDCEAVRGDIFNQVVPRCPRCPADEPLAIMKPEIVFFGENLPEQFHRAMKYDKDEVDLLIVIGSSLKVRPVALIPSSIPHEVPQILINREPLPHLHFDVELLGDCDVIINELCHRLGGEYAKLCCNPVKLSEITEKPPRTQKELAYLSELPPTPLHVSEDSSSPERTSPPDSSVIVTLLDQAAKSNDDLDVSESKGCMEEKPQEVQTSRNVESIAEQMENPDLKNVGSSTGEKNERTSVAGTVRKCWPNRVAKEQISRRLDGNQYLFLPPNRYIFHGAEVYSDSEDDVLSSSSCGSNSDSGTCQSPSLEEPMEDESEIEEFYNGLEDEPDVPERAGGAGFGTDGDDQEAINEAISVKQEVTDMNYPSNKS
# TEST DESCRIPTION: SIRT1 fluorescent deacetylation assay (p53-382 acetylated peptide substrate)
# Type: biochemical
# CONDITION SET: Supplementary Table 6, free radical protective compounds; 100 μM, 25 μM NAD+, 25 μM p53-382 acetylated peptide
Give rule met when the value for Ratio to Control Rate Mean ± SE is at least 2. Give rule not met when it is less.

Has Cc1c(C)c2c(c(C)c1O)CCC(C)(C(=O)O)O2 (centres unmarked) [Trolox, reference compound] a recorded Ratio to Control Rate Mean ± SE greater than or equal to 2?
rule not met

Has CC(C)c1cccc(=O)c(O)c1 [Hinokitiol] a recorded Ratio to Control Rate Mean ± SE greater than or equal to 2?
rule met

Has Nc1c(Br)cc(Br)cc1CN[C@H]1CC[C@H](O)CC1 [Ambroxol, reference compound] a recorded Ratio to Control Rate Mean ± SE greater than or equal to 2?
rule not met

Has O=C(/C=C/c1ccc(O)c(O)c1)Oc1ccccc1 [Caffeic Acid Phenyl Ester] a recorded Ratio to Control Rate Mean ± SE greater than or equal to 2?
rule not met

Has Cl.O.O=C(O)CN(CCN(CC(=O)O)Cc1ccccc1O)Cc1ccccc1O [HBED, reference compound] a recorded Ratio to Control Rate Mean ± SE greater than or equal to 2?
rule not met

Has C[N+](C)(C)[C@@H](Cc1c[nH]c(=S)[nH]1)C(=O)[O-] [L-(+)-Ergothioneine] a recorded Ratio to Control Rate Mean ± SE greater than or equal to 2?
rule met

Has Cc1c(C)c2c(c(C)c1O)CCC(C)(CN1CCN(c3cc(N4CCCC4)nc(N4CCCC4)n3)CC1)O2.Cl.Cl (single isomer, unassigned; (-)) [Compound U-83836E, reference compound] a recorded Ratio to Control Rate Mean ± SE greater than or equal to 2?
rule not met

Has CC1=NN(c2ccccc2)C(=O)C1 [MCI-186, 3-Methyl-1-phenyl-2-pyrazolin-5-one, reference compound] a recorded Ratio to Control Rate Mean ± SE greater than or equal to 2?
rule not met
